Assign IC50 to each entry below.
Tested on: Hedgehog pathway activation on 10T1/2/Smo#3 cells (C3H10T1/2 cells transfected with human Smoothened receptor)
experiment summary: Hedgehog pathway activation on 10T1/2/Smo#3 cells measured by ALP activity
Format: cell-based
measurement parameters: Mus musculus, C3H 10T1/2, 10T1/2/Smo#3 cells, hShh activation, ALP activity; read-out: 10T1/2/Smo#3 ALP activity (hShh Activation)

Some compounds with known IC50 results, for comparison:
compound	IC50
CC(C)(C)C(=O)Nc1cc(-c2cn3cc(Cl)ccc3n2)ccc1C(F)(F)F [Example 81]	0.3 to 3 µM
CC(C)(C)C(=O)Nc1cc(-c2cn3nc(N4CCC(N5CCOCC5)CC4)ccc3n2)ccc1C(F)(F)F [Example 369]	0.3 to 3 µM
COc1ccc2nc(-c3ccc(C)c(NC(=O)Cc4ccc(Cl)cc4)c3)cn2n1 [Example 101]	3 to 30 µM
Cc1ccc(-c2cn3nc(NC(=O)c4cccc(C=CC(=O)NO)c4)ccc3n2)cc1NC(=O)C(C)(C)C [compound 605]	< 0.3 µM
Cc1ccc(-c2cn3nc(-c4cccnc4C(F)(F)F)ccc3n2)cc1NC(=O)C(C)(C)C [Example 284]	< 0.3 µM

Quick request: IC50 for each listed item, please.
1. Cc1ccc(-c2cn3cccnc3n2)cc1NC(=O)CC(C)(C)C [Example 89]
2. COc1ccc2nc(-c3ccc(C)c(NC(=O)C(C)(C)C)c3)cn2n1 [Example 4]
3. Cc1ccc(-c2cn3nc(-c4cccc(C=CC(=O)O)c4)ccc3n2)cc1NC(=O)C(C)(C)C [compound 554]

3 to 30 µM
0.3 to 3 µM
0.3 to 3 µM

* * *

System: Hedgehog pathway activation on 10T1/2/Smo#3 cells (C3H10T1/2 cells transfected with human Smoothened receptor)
experiment summary: Hedgehog pathway activation on 10T1/2/Smo#3 cells measured by ALP activity
Assay type: cell-based
measurement parameters: Mus musculus, C3H 10T1/2, 10T1/2/Smo#3 cells, hShh activation, ALP activity; read-out: 10T1/2/Smo#3 ALP activity (hShh Activation)
pIC50: −log10 of the molar value.
measurement label: pIC50

Quick request: pIC50 for each listed item, please.
1. CCN(CC)C(=O)Nc1cc(-c2cn3nc(-c4cccnc4C(F)(F)F)ccc3n2)ccc1Cl [Example 655]
2. Cc1c(-c2cccc(NC(=O)C3CCCCC3)c2)nc2ncccn12 [Example 92]
3. CC(C)(C)C(=O)Nc1cc(-c2cn3nc(-c4cccnc4C(F)(F)F)ccc3n2)ccc1Cl [Example 642]
4. Cc1ccc(-c2cn3nc(-c4ccc(OCCCCCCC(=O)NO)cc4C(F)(F)F)ccc3n2)cc1NC(=O)C(C)(C)C [Example 417]
5. COc1ccc2nc(-c3cc(NC(=O)CC(C)(C)C)ccc3Cl)cn2n1 [Example 117]
6. CC(C)(C)C(=O)Nc1cc(-c2cn3nc(-c4cccnc4)ccc3n2)ccc1C(F)(F)F [Example 153]
7. CCC(CO)Nc1ccc2nc(-c3ccc(C(F)(F)F)c(NC(=O)C(C)(C)C)c3)cn2n1 (centres unmarked) [Example 303]

1. > 6.52
2. 4.52 to 5.52
3. > 6.52
4. 4.52 to 5.52
5. 4.52 to 5.52
6. 5.52 to 6.52
7. 5.52 to 6.52

Quick request: pIC50 for each listed item, please.
1. CCOc1ccc2nc(-c3ccc(C(F)(F)F)c(S(=O)(=O)NC4CC4)c3)cn2n1 [Example 212]
2. Cc1ccc(-c2cn3nc(-c4ccc(C(N)=O)cc4C(F)(F)F)ccc3n2)cc1NC(=O)C(C)(C)C [compound 508]
3. Cc1ccc(-c2cn3ncccc3n2)cc1NC(=O)C(C)(C)C [Example 105]
4. CCc1ccc(-c2cn3nc(-c4cccnc4C(F)(F)F)ccc3n2)cc1NC(=O)C1(C)CC1 [Example 633]
5. Cc1c(-c2ccccc2)nc2ccc(N3CCN(Cc4cccnc4)CC3)nn12 [Example 161]
6. COc1cc(CN(Cc2cc(OC)cc(OC)c2)c2cc(-c3cn4nc(OC)ccc4n3)ccc2C)cc(OC)c1 [Example 104]
7. CC(C)(C)C(=O)Nc1cc(-c2cn3nc(-c4cccnc4C(F)(F)F)ccc3n2)c(F)cc1Cl [Example 650]
8. CCOC(=O)COc1cccc(-c2ccc3nc(-c4ccc(C)c(NC(=O)C(C)(C)C)c4)cn3n2)c1C(F)(F)F [Example 410]

["4.52 to 5.52", "> 6.52", "5.52 to 6.52", "> 6.52", "5.52 to 6.52", "4.52 to 5.52", "> 6.52", "5.52 to 6.52"]

Quick request: pIC50 for each listed item, please.
1. CC(C)(C)C(=O)Nc1cc(-c2cn3ncccc3n2)ccc1Cl [Example 113]
2. Cc1ccc(-c2nc3ccc(N4CCC(O)CC4)nn3c2C)cc1NC(=O)C(C)(C)C [Example 313]

1: 5.52 to 6.52; 2: 5.52 to 6.52

Quick request: pIC50 for each listed item, please.
1. Cc1ccc(-c2cn3nc(-c4ccc(C=CC(=O)NO)cc4)ccc3n2)cc1NC(=O)C(C)(C)C [compound 560]
2. Cc1ccc(-c2cn3nc(-c4cccnc4C(F)(F)F)ccc3n2)cc1NC(=O)CCCCCCC(=O)NO [Example 429]
3. Cc1ccc(-c2cn3nc(-c4ncccc4C(F)(F)F)ccc3n2)cc1NC(=O)C(C)(C)C [Example 400]
4. C#Cc1ccc(-c2cn3nc(-c4ccccc4F)ccc3n2)cc1NC(=O)C(C)(C)C [Example 321]
5. CC(=O)c1ccc(F)c(-c2ccc3nc(-c4ccc(C)c(NC(=O)C(C)(C)C)c4)cn3n2)c1 [compound 529]
6. Cc1ccc(-c2cn3nc(N4CCN(Cc5ccc(F)cc5)CC4)ccc3n2)cc1NC(=O)C(C)(C)C [Example 123]
7. Cc1c(-c2ccccc2)nc2ccc(NC3CCN(Cc4ccccc4)CC3)nn12 [Example 168]

1. 5.52 to 6.52
2. 5.52 to 6.52
3. > 6.52
4. 5.52 to 6.52
5. > 6.52
6. 5.52 to 6.52
7. 5.52 to 6.52

* * *

Assign pIC50 to each entry below.
System: Hedgehog pathway activation on 10T1/2/Smo#3 cells (C3H10T1/2 cells transfected with human Smoothened receptor)
experiment summary: Hedgehog pathway activation on 10T1/2/Smo#3 cells measured by ALP activity
Assay type: cell-based
measurement parameters: Mus musculus, C3H 10T1/2, 10T1/2/Smo#3 cells, hShh activation, ALP activity; read-out: 10T1/2/Smo#3 ALP activity (hShh Activation)
pIC50: −log10 of the molar value.

Some compounds with known pIC50 results, for comparison:
cpd smiles	pIC50
COc1ccc2nc(-c3ccc(Cl)c(NC(=O)C(C)(C)C(F)(F)F)c3)cn2n1	4.52 to 5.52
Cc1ccc(-c2cn3nc(-c4ccc(C(=O)Nc5ccccc5N)cc4)ccc3n2)cc1NC(=O)C(C)(C)C	> 6.52
CC(C)(C)C(=O)Nc1cc(-c2cn3nc(Oc4ccc(F)cc4)ccc3n2)ccc1C(F)(F)F	5.52 to 6.52
Cc1cccc(-c2ccc3nc(-c4ccc(C(F)(F)F)c(NC(=O)C(C)(C)C)c4)cn3n2)n1	5.52 to 6.52
Cc1ccc(-c2cn3nc(-c4ccc(/C(N)=N/O)cc4C(F)(F)F)ccc3n2)cc1NC(=O)C(C)(C)C	> 6.52

Quick request: pIC50 for each listed item, please.
1. CCCCSc1ccc2nc(-c3ccc(C)c(NC(=O)C(C)(C)C)c3)cn2n1
2. COc1ccc2nc(-c3ccc(C)c(NC(=O)C(C)(C)C)c3)c(-c3ccc(F)cc3)n2n1
3. CN[C@@H]1CCN(c2ccc3nc(-c4ccc(C)c(NC(=O)C(C)(C)C)c4)cn3n2)C1
4. CCc1ccc(-c2cn3nc(-c4ccccc4F)ccc3n2)cc1NC(=O)C(C)(C)C

1. 5.52 to 6.52
2. 4.52 to 5.52
3. > 6.52
4. > 6.52

* * *

System: Hedgehog pathway activation on 10T1/2/Smo#3 cells (C3H10T1/2 cells transfected with human Smoothened receptor)
experiment summary: Hedgehog pathway activation on 10T1/2/Smo#3 cells measured by ALP activity
Type: cell-based
measurement parameters: Mus musculus, C3H 10T1/2, 10T1/2/Smo#3 cells, hShh activation, ALP activity; read-out: 10T1/2/Smo#3 ALP activity (hShh Activation)
Assign IC50 to each entry below.

Quick request: IC50 for each listed item, please.
1. CNc1ccc2nc(-c3ccc(C(F)(F)F)c(NC(=O)C(C)(C)C)c3)cn2n1
2. COC(=O)CCCCCCNC(=O)c1ccc(-c2ccc3nc(-c4ccc(C)c(NC(=O)C(C)(C)C)c4)cn3n2)c(C(F)(F)F)c1
3. Cc1c(Cl)nn2cc(-c3ccc(C(F)(F)F)c(NC(=O)C(C)(C)C)c3)nc2c1C
4. Cc1ncc(-c2cn3nc(-c4ccccc4F)ccc3n2)cc1NC(=O)C(C)(C)C

["300 to 3000 nM", "< 300 nM", "300 to 3000 nM", "300 to 3000 nM"]
